Reported TGI is given for each of the following molecules.
Test system: NCI/ADR-RES ovarian
Assay: NCI tumour cell line growth inhibition, 48 h

molecule	TGI
CC1(C)C(N(O)C(=O)Nc2ccc(Cl)cc2)N(c2ccc(Cl)cc2)C(=O)N1CC(=O)N/N=C/C=C/c1ccc([N+](=O)[O-])o1 (stereo not given)	> 100 µM
CC1=NC(C)(C)[N+]([O-])=C1	> 10 µM
CCC1(c2ccc(N3C(=O)c4ccccc4C3=O)cc2)CCC(=O)NC1=O (stereo not given)	> 10 µM
C[N+](C)(C)CCN(Cc1cccs1)c1ccccn1	> 100 µM
CN(C)C1C(=O)C(C(=O)NCN2CCCC2)=C(O)C2(O)C(=O)C3=C(O)c4c(O)cccc4C(C)(O)C3CC12 (stereo not given)	> 100 µM
COc1cc2c(cc1OCCCCCn1c(-c3ccc(OCc4ccccc4)cc3)nc3cc(N4CCOCC4)ccc31)N=C[C@@H]1CCCN1C2=O	26.1 µM
Oc1ccc(O)c(Cc2ccccc2)c1	42.9 µM
O=C1C(Cl)=C(N2CCN(CCOCCO)CC2)C(=O)c2ncccc21	> 10 µM
O=C(COc1nc2ccccc2nc1-c1ccccc1)Nc1ccc(Cl)cc1	> 100 µM
O=C1C(c2c(O)[nH]c3ccc([N+](=O)[O-])cc23)=Nc2ccccc21	> 100 µM
